Reference for the values: patent US4112228A

Assay: Stability in solution (remaining activity by paper disc assay)
Format: physicochemical
Details: 0.1 m nh4oh-nh4cl buffer; 0.02% solution, pH 9 (0.1 M NH4 OH--NH4 Cl buffer), 2 days
ASSAY_METRIC: remaining at 48 h
Write the numeric value and append its unit.

Value lookup for remaining at 48 h; key = O=C(O)Cn1nc2ccc(SCC3=C(C(=O)O)N4C(=O)C(NC(=O)[C@H](O)c5ccccc5)[C@H]4SC3)nn2c1=O (stereo partly shown) [BB-S488]
14%

---

Assay: Blood levels in mice after subcutaneous administration
Format: in vivo
Settings: mouse, sc 40 mg./kg., 60', read-out: Blood level
Each record here notes measured concentration at 1 h.
Numbers only here, please. The scale is ng/mL.

| COMPOUND | RESULT_UNITS | concentration at 1 h |
| --- | --- | --- |
| Cn1nnnc1SCC1=C(C(=O)O)N2C(=O)[C@@H](NC(=O)[C@H](O)c3ccccc3)[C@H]2SC1 [Cefamandole, cefamandole, reference compound] | ng/mL | 3900 |

Here is the next item to consider.
If you can, please state the reported concentration at 1 h value of O=C(O)Cn1nc2ccc(SCC3=C(C(=O)O)N4C(=O)C(NC(=O)[C@H](O)c5ccccc5)[C@H]4SC3)nn2c1=O (some centres unmarked) .
12000

---

Experiment: Blood levels in mice after subcutaneous administration
Assay type: in vivo
Settings: mouse, sc 20 mg./kg., 15', read-out: Blood level
Parameter concentration at 0.25 h: see the listing below.
The reply should contain only the number, in ng/mL.

| MOLECULE | REPORTED |
| --- | --- |
| Cn1nnnc1SCC1=C(C(=O)O)N2C(=O)[C@@H](NC(=O)[C@H](O)c3ccccc3)[C@H]2SC1 [Cefamandole, cefamandole, reference compound] | 9500 |

Find the recorded concentration at 0.25 h belonging to O=C(O)Cn1nc2ccc(SCC3=C(C(=O)O)N4C(=O)C(NC(=O)[C@H](O)c5ccccc5)[C@H]4SC3)nn2c1=O (some centres unmarked) and report it.
7400

---

Assay: Stability in solution (remaining activity by paper disc assay)
Format: physicochemical
Conditions: 0.02% solution, pH 7 (0.1 M phosphate buffer), 3 days
ASSAY_METRIC: remaining at 72 h (%)
Your answer should be a plain number; it is taken to be in %.

Fill in the blank: the reported remaining at 72 h of O=C(O)Cn1nc2ccc(SCC3=C(C(=O)O)N4C(=O)C(NC(=O)[C@H](O)c5ccccc5)[C@H]4SC3)nn2c1=O (stereo partly shown) [BB-S488] is ____.
64

---

Assay: Blood levels in mice after subcutaneous administration
Assay type: in vivo
Conditions: mouse, sc 10 mg./kg., 60', read-out: Blood level
ASSAY_METRIC: concentration at 1 h (ng/mL)
Kindly answer with a numeric value in ng/mL, unit omitted.

| COMPOUND | RESULT_UNITS | REPORTED |
| --- | --- | --- |
| O=C(O)Cn1nc2ccc(SCC3=C(C(=O)O)N4C(=O)C(NC(=O)[C@H](O)c5ccccc5)[C@H]4SC3)nn2c1=O (some centres unmarked) | ng/mL | 800 |

Moving on to another compound below.
Which concentration at 1 h is listed for Cn1nnnc1SCC1=C(C(=O)O)N2C(=O)[C@@H](NC(=O)[C@H](O)c3ccccc3)[C@H]2SC1 [Cefamandole, cefamandole, reference compound] ?
300
